Below, each of the sequences is paired with its reported apparent KD of K4 kissing-loop reporter value.
tested on: K4 kissing-loop RNA reporter; assay: apparent KD of K4 kissing-loop reporter; higher = weaker reporter binding; conditions: Eterna round: R107; input ligand: tryptophan 2.4 mM
Note: unit nM is implicit; provide only the numeric part.

Let me know recorded apparent KD of K4 kissing-loop reporter for AGAAAGAAGGCGGCCGCCACUCUGAUGGGCGAAAGCCCAUUUUUUUAGCAGUGAUGUUGCUUGUUGAGGACCGGGCCAAAGAAAU [2nd] , thanks.
114

Next:
Let me know recorded apparent KD of K4 kissing-loop reporter for CCAUCGCUAUUCGAUACCAGUCUUUUUUAUUUAUAAAAUCUGCAAAGGAGUGAUGUUCCAGACCCUUGGCAGCGAAUAGUGAUGG [Theophylline B K4 3] , thanks.
459

Let me know recorded apparent KD of K4 kissing-loop reporter for UUUUAAAUAUCUGAUACCAGAGAAAAUAUAUGUAGUGAUGUUAUAUACAAAAUAAUUAAGCUCCCUUGGCAGCAGUAUUAAUUUU [AstrosExc-TheB#3] , thanks.
541

Let me know recorded apparent KD of K4 kissing-loop reporter for UGUGCCAAAUGUGAUACCAGCUUCCUGCAGUGAUGUUGCAUACGAGUGAUGUUCGUCCGAGGCCCUUGGCAGCGCAGUCGUUUGA [Same State Theophylline B GF 27] , thanks.
352

Let me know recorded apparent KD of K4 kissing-loop reporter for UGCUUAGUGAUGUUUGAUUUGGUGCAUGCAGAGGAUAUAGGGUGCUUUAGAAGGCUGAGGAGUGCGCCGAGUGAUGUUCGGCGCU [Exclusion FMN A GF11] , thanks.
170

Let me know recorded apparent KD of K4 kissing-loop reporter for AGAUUCGACACGGCCGCCACUCGUGGUGGAUUACCUAGUGUCGAAGUUGAGUGAUGUUCAACUACGAGGACCGGGUGUUGAGUCU [KL-XTryp-B7 #analogue] , thanks.
448

Let me know recorded apparent KD of K4 kissing-loop reporter for GUAUGUGAUGGAAACAUCGCAUACACUGAUACCAGUAUCGAUAGAUACCCUUGGCAGCAGAAAACUGCAAUUGGAGUGAUGUUCC [Ex Theophylline A K4 1] , thanks.
201

Let me know recorded apparent KD of K4 kissing-loop reporter for GUCCCGAGUGAUGUUCGGGUCGUUCGGGAAGGAGCGCCCGCAAGGGCAGGUAGGUCGCCCGGAUCCCUCAGGUAACUGAGGGACC [#2 Same State - Arginine A Attempt #26 (HarryS)] , thanks.
465

Let me know recorded apparent KD of K4 kissing-loop reporter for AGGUCCGAGCCCGUAAGGGCUCGGACCUGUUAGGAUAUGACGUUAUUCAGAAGGGAUGGGUGGAGUGAUGUUCCACCCGCAAGGG [#2 Same State - FMN A Attempt #10 (HarryS)] , thanks.
95.7

Let me know recorded apparent KD of K4 kissing-loop reporter for UUAGAGAUCUCAGGAUAUCAGUGAUGUUGGUGUUAAGAUCUGAGAUAGAAUUCUAUCUCAGAUCAAUGAGAAGGGAGAUCUCAUU [AK3 Exc FMN B] , thanks.
152

Let me know recorded apparent KD of K4 kissing-loop reporter for UAGACCAGUGAUGUUGGUUCCAAGACGGAUACCAGACUGGCAGAAGUCCCUUGGCAGCUGUAGACCUUGUGAGCUACAAGGUCGG [Theo A SS t2] , thanks.
295

Let me know recorded apparent KD of K4 kissing-loop reporter for CCUAUCUCAUACGAUACCAGUCUAUUGUUACGAGUGAUGUUCGAAUAUUUGCCAUUCAAUGACCCUUGGCAGCGUAUGGGAUAGG [Ex Theophylline B K4 10] , thanks.
486

====

system: MS2 coat protein; assay: apparent KD of MS2 coat protein; designed switch direction (-1 OFF switch, 1 ON switch): 1; higher = weaker reporter binding; conditions: input ligand: microRNA oligo, concentration not stated
Below, each of the sequences is paired with its reported apparent KD of MS2 coat protein value.
Note: unit nM is implicit; provide only the numeric part.

Let me know recorded apparent KD of MS2 coat protein for UAAUAAAAGGAUAUACAUGAGGAUCACCCAUGUCCGUCUGCCAAGGAUAUCUAGGAUCAAGCAGCAGAGAAGGUGGCACGCCAC [Eternabot solution 35] (Eterna round: R96, puzzle: Same State NG 3) , thanks.
17.2

Next:
Let me know recorded apparent KD of MS2 coat protein for UGAAUAGUUACAGGAUAUCAUGCGAAAAUUGCGUGAGAAGGGUGGGUGUUGUGCGCAAAGUGCUACAUGAGGAUCACCCAUGUU [SameState NG1 #39] (Eterna round: R96, puzzle: Same State NG 1) , thanks.
23.1

Let me know recorded apparent KD of MS2 coat protein for ACUAAAACUGCAGGAUAUGUCCGGAACUCCGUUACAGAAGGGCAACGCACUGUUGAGGGCACGACAUGAGGAUCACCCAUGUAG [Eternabot solution 46] (Eterna round: R96, puzzle: Same State NG 1) , thanks.
22.5

Let me know recorded apparent KD of MS2 coat protein for AGAUCAUGACGAGGAUAUCCGACAUGAGGAUCACCCAUGUAUGUCGGAGGACGCGUACGUCCAAAGGAGAAGGCGUCGUGGUCA [JL SSNG2 1.02] (Eterna round: R96, puzzle: Same State NG 2) , thanks.
48.4

Let me know recorded apparent KD of MS2 coat protein for CAAGAAAACGCAGGAUAUACCCGGGCUACCCGGGUAGAAGGGUGACACAUGAGGAUCACCCAUGUACAUAGAAUUAGCUAUGGA [Soberaa] (Eterna round: R96, puzzle: Same State NG 1) , thanks.
15.9

====

Below, each of the sequences is paired with its reported apparent KD of MS2 coat protein value.
tested on: MS2 coat protein; test: apparent KD of MS2 coat protein; designed switch direction (-1 OFF switch, 1 ON switch): 1; higher = weaker reporter binding; settings: input ligand: FMN 200 uM
Note: unit nM is implicit; provide only the numeric part.

Let me know recorded apparent KD of MS2 coat protein for GCGAGCGUACUUGCUACAUGAGGAUCACCCAUGUUCAUUGGACAGGAUAUGGUACCGUUUCGGUACCAGAAGGGUUCAUCAUGU [JL SSNG3 3.73] (Eterna round: R96, puzzle: Same State NG 3) , thanks.
1190

Next:
Let me know recorded apparent KD of MS2 coat protein for GUAGCAUACCGAGGAUAUUCAUUACAUGAGGAUCACCCAUGUUAGGCCAGCAUUAGCUGGCCUUGGGAGAAGGCGGAAUGCUAC [Xeonanis - 20 Mod53] (Eterna round: R96, puzzle: Same State NG 2) , thanks.
14

Let me know recorded apparent KD of MS2 coat protein for GAGGGACGGACGAACAUGAGGAUCACCCAUGUCCUCGGAGGUCAGGAUAUCCGGAGGUAGCCGAAGGAGAAGGGACGGUGAACC [AK SSNG3-V2-31.1] (Eterna round: R96, puzzle: Same State NG 3) , thanks.
104

Let me know recorded apparent KD of MS2 coat protein for ACAUGAGAGUGAGGAUAUGGUGUACCUACAUGUGACAUGAGGAUCACCCAUGUGGUAAGUAUGACUCAGAAGGCACAGAUAUGU [Equivalance 77 - Jieux - Same State NG 2] (Eterna round: R96, puzzle: Same State NG 2) , thanks.
16.2

Let me know recorded apparent KD of MS2 coat protein for GGCACAGCGUGAGGAUAUCGGUACGCACGUAGUCGAGAAGGUACCUGAAAUGGUACACAUGAGGAUCACCCAUGUGACUGGGCA [Eternabot solution 14] (Eterna round: R96, puzzle: Same State NG 1) , thanks.
40.7

====

tested on: K4 kissing-loop RNA reporter; assay: apparent KD of K4 kissing-loop reporter; higher = weaker reporter binding; conditions: Eterna round: R107; input ligand: arginine 13.2 mM;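 note: bound reporter read as fluorescence of individual clusters on recovered sequencing chips by microscopy, with normalized cluster intensities fitted with a binding model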
REPORTED_METRIC: apparent KD of K4 kissing-loop reporter (nM)
Note: unit nM is implicit; provide only the numeric part.

Let me know recorded apparent KD of K4 kissing-loop reporter for CGCCGGAAGGCGAGCGCUCCCACUCCGGAAGGAGCGCCCGAAAGGGCAGGUAGGUCGCCGGAGUGAUGUUCCGGUGGAGGGCUCG [#2 Exclusion - Arginine A Attempt #29 (Inspired by Omei)] , thanks.
119

Next:
Let me know recorded apparent KD of K4 kissing-loop reporter for UUUGGUUUCUCGGCCGCCACUCGUUGUCUAUCGGCUUCAGGGAUAUAGUGAUGUUAUGUAUAGAAGAGGACCGGGAGAAGGUUCU [ExTryptoB.Dx] , thanks.
267

Let me know recorded apparent KD of K4 kissing-loop reporter for AACUUAAUUUAUAAGCAGUGAUGUUGCUUACGAGGACCGGUACGGCCGCCACUCGAUCGCAUUUAUGUCUUCAAUUAAUUCAUUA [JR_ExcTryptoA_Sub016] , thanks.
196
